Data provenance is PubChem BioAssay (NCI).

Tested on: OVCAR-5 ovarian
Assay: NCI-60 one-dose screen, 48 h (100 = growth as untreated, 0 = no growth, -100 = all killed)
Settings: 10 µM unless noted
Description: Growth inhibition of the OVCAR-5 human tumor cell line is measured as a screen for anti-cancer activity. Cells are grown in 96 well plates and exposed to the test compound for 48 hours. Compounds are tested at a single concentration, which is 10^-5 M for most compounds. The reported endpoint is percent growth (GI% or GIPRCNT), where numbers from 0 - 100% represent growth inhibition, and numbers from -100% - 0 represent cell death. For example, a value of 40 represents 60% growth inhibition. […]
About 83,000 compounds went through this panel and 20% of them were active in at least one assay; those are over-represented in the sample as a whole.

{"molecule": "CCN(CC)CCOC(COc1cc(C)cc(C)c1)COc1cc(C)cc(C)c1", "target-or-system": "OVCAR-5 ovarian", "growth [%]": 55.6}
{"molecule": "C=C(C)[C@@H]1CC[C@]2(C(=O)NCCCN(CCC#N)CCC#N)CC[C@]3(C)[C@H](CC[C@@H]4[C@@]5(C)CCC(=O)C(C)(C)[C@@H]5CC[C@]43C)[C@@H]12", "target-or-system": "OVCAR-5 ovarian", "growth [%]": 103}
{"molecule": "Cc1c([N+](=O)[O-])cc(C(C)(C)C)cc1[N+](=O)[O-]", "target-or-system": "OVCAR-5 ovarian", "growth [%]": 91.1}
{"molecule": "Cn1/c(=N/NC(N)=S)ccc2ccccc21", "target-or-system": "OVCAR-5 ovarian", "growth [%]": 99}
{"molecule": "Fc1ccc(C2CC(c3cccc(Nc4ccncc4)c3)=NN2c2ccc(Cl)cc2)cc1 (centres undefined)", "target-or-system": "OVCAR-5 ovarian", "growth [%]": 88.8}
{"molecule": "COc1ccc(-c2nc(N/N=C/c3ccco3)nc(N3CCOCC3)c2C#N)cc1", "target-or-system": "OVCAR-5 ovarian", "growth [%]": 89.6}
{"molecule": "CCNNC(=O)[C@@H]1[C@H](c2cc(OC)c(OC)c(OC)c2)c2cc3c(cc2[C@H](O)[C@H]1CO)OCO3", "target-or-system": "OVCAR-5 ovarian", "growth [%]": 33.6}
{"molecule": "COc1ccccc1OCC(=O)N1CCCCCC1", "target-or-system": "OVCAR-5 ovarian", "growth [%]": 94.8}
{"molecule": "COc1ccc(C2=NN(C(C)=O)C(c3cn(Cc4ccc(Cl)cc4)c4ccccc34)C2)cc1 (centres undefined)", "target-or-system": "OVCAR-5 ovarian", "growth [%]": 79.6}
